Target: T1, His9G-tagged cynomolgus CD27 recombinant protein (cynomolgus, limits assumed)
T1 construct: In-house, transient transfection of HEK293 cells; also called Cyno CD27/His
T1 chain: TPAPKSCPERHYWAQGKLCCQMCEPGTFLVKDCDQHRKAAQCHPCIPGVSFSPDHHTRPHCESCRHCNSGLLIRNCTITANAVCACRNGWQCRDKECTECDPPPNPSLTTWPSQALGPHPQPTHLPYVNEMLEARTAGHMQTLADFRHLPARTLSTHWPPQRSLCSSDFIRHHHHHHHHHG
Assay: SPR Biacore 4000, antibody captured on anti-human Fc, His9G-tagged CD27 injected, 1:1 fit;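 also: Double-referenced SPR (blank anti-Fc surface and buffer injection subtracted), KD derived from association and dissociation rate constants, with human and cynomolgus CD27 as analytes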
REPORTED_ENDPOINT: Kd

>  <BINDER>
hCD27.131A VH7VL7 huIgG1 (antibody, V domains shown) VH: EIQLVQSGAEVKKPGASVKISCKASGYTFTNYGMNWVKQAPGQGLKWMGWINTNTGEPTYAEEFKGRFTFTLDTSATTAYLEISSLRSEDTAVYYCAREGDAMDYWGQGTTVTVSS VL: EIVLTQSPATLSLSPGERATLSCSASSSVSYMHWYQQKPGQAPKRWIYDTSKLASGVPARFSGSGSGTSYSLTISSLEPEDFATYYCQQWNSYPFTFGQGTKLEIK

>  <ENDPOINT_VALUE>
31.7 nM

$$$$
